- System: FAB9
- Test summary: qHTS profiling for inhibitors of Plasmodium falciparum proliferation (AID 504749); further: nearly all actives have a fitted effect of over 60% in size
- Test parameters: P. falciparum in erythrocytes, SYBR Green DNA, 72 h; series mostly up to 28.7 µM
Records with an inconclusive call do not appear. Activity calls are given as the source filed them. The call rests on the fitted dose curve; in most records, active means well fitted inhibition curve with a large enough effect; inconclusive means small, poorly fitted or top-dose-only effect; inactive means flat fitted curve, though single readings scatter.
Outcome codes: active, inactive

>  <Compound>
CCCNCC(O)COc1ccccc1C(=O)CCc1ccccc1 (configuration not stated)

>  <Cat>
active

$$$$
>  <Compound>
Clc1ccccc1C(c1ccccc1)(c1ccccc1)n1ccnc1

>  <Cat>
active

$$$$
>  <Compound>
O=c1[nH]cc(F)c(=O)[nH]1

>  <Cat>
inactive

$$$$
>  <Compound>
NC(=O)NO

>  <Cat>
inactive

$$$$
>  <Compound>
CC12CC3CC(C)(C1)CC(N)(C3)C2

>  <Cat>
inactive

$$$$
>  <Compound>
CN1C(C(=O)Nc2ccccn2)=C(O)c2ccccc2S1(=O)=O

>  <Cat>
inactive

$$$$
>  <Compound>
CC[C@@]1(O)C(=O)OCc2c1cc1n(c2=O)Cc2cc3c(CN(C)C)c(O)ccc3nc2-1

>  <Cat>
inactive

$$$$

----------
- Tested on: CP238
- Test summary: qHTS profiling for inhibitors of Plasmodium falciparum proliferation (AID 504749); further: nearly all actives have a fitted effect of over 60% in size
- Test parameters: P. falciparum in erythrocytes, SYBR Green DNA, 72 h; series mostly up to 28.7 µM
Results filed as inconclusive are left out. Activity calls are given as the source filed them. Calls follow the shape of the dose curve; as a rule, active = well fitted inhibition curve with a large enough effect; inconclusive = small, poorly fitted or top-dose-only effect; inactive = flat fitted curve, though single readings scatter.
Outcome codes: active, inactive

>  <Molecular string>
CCOC(=O)c1ncn2c1CN(C)C(=O)c1cc(F)ccc1-2

>  <Cat>
inactive

$$$$
>  <Molecular string>
Clc1ccccc1C(c1ccccc1)(c1ccccc1)n1ccnc1

>  <Cat>
active

$$$$
>  <Molecular string>
COc1ccc2[nH]cc(CCNC(C)=O)c2c1

>  <Cat>
inactive

$$$$
>  <Molecular string>
NCCCCCC(=O)O

>  <Cat>
inactive

$$$$
>  <Molecular string>
Cc1cn([C@H]2C[C@H](N=[N+]=[N-])[C@@H](CO)O2)c(=O)[nH]c1=O

>  <Cat>
inactive

$$$$
>  <Molecular string>
N[C@@H](Cc1c[nH]c2ccc(O)cc12)C(=O)O

>  <Cat>
inactive

$$$$

----------
- Test summary: Quantitative High-Throughput drug screen in 47 multiple myeloma cell lines against the NCATS MIPE library collection: Karpas620_DSMZ cell viability assay (AID 1918959); further: nearly all actives have a fitted effect of over 30% in size
- Test parameters: Karpas620 myeloma viability, CellTiter-Glo ATP luminescence, 48 h; series mostly up to 45.8 µM
Records with an inconclusive call do not appear. Calls of active or inactive are those of the source. Calls follow the shape of the dose curve; as a rule, active = well fitted cell-killing curve with a large enough effect; inconclusive = small, poorly fitted or top-dose-only effect, or effect the other way; inactive = no such curve, though single readings can be large or run the other way.
Outcome codes: Yes (active), No (inactive)

>  <Compound>
CC(C)NCC(O)COc1ccc(CCOCC2CC2)cc1 (stereo unspecified)

>  <Cat>
No

$$$$
>  <Compound>
CC#C[C@]1(O)CC[C@H]2[C@@H]3CCC4=CC(=O)CCC4=C3[C@@H](c3ccc(N(C)C)cc3)C[C@@]21C

>  <Cat>
Yes

$$$$
>  <Compound>
CC(C)NCC(O)c1ccc(O)c(O)c1 (stereo unspecified)

>  <Cat>
Yes

$$$$
>  <Compound>
COc1ccc2c(c1)c(CC(=O)O)c(C)n2C(=O)c1ccc(Cl)cc1

>  <Cat>
No

$$$$
>  <Compound>
CC[N+](CC)(CC)CCOc1cccc(OCC[N+](CC)(CC)CC)c1OCC[N+](CC)(CC)CC

>  <Cat>
No

$$$$
>  <Compound>
CCC1(C)CC(=O)NC1=O (stereo unspecified)

>  <Cat>
No

$$$$
>  <Compound>
OCCN1CCN(CCCN2c3ccccc3Sc3ccc(C(F)(F)F)cc32)CC1

>  <Cat>
Yes

$$$$
>  <Compound>
CC(C)Cc1ccc(C(C)C(=O)O)cc1 (stereo unspecified)

>  <Cat>
No

$$$$
>  <Compound>
CC1(CN2CCC(n3c(=O)[nH]c4ccccc43)CC2)OCc2ccccc2-n2cccc21 (stereo unspecified)

>  <Cat>
No

$$$$
>  <Compound>
Fc1ccc([C@@H]2CCNC[C@H]2COc2ccc3c(c2)OCO3)cc1

>  <Cat>
No

$$$$
>  <Compound>
COc1ccc(C2CNC(=O)C2)cc1OC1CCCC1 (stereo unspecified)

>  <Cat>
No

$$$$
>  <Compound>
O=C(c1ccc(F)cc1)C1CCN(CCn2c(=O)[nH]c3ccccc3c2=O)CC1

>  <Cat>
No

$$$$
>  <Compound>
Cn1ccc2cc3c(cc21)CCN3C(=O)Nc1cccnc1

>  <Cat>
No

$$$$
>  <Compound>
NC(=O)OCC(COC(N)=O)c1ccccc1

>  <Cat>
No

$$$$
>  <Compound>
O=c1c(-c2ccc(O)cc2)coc2cc(O)cc(O)c12

>  <Cat>
No

$$$$
>  <Compound>
O=C(c1ccc(OCCN2CCCCC2)cc1)c1c(-c2ccc(O)cc2)sc2cc(O)ccc12

>  <Cat>
Yes

$$$$
>  <Compound>
CCOC(=O)c1ncn2c1CN(C)C(=O)c1cc(F)ccc1-2

>  <Cat>
No

$$$$
>  <Compound>
COc1cc2nc(N3CCN(C(=O)c4ccco4)CC3)nc(N)c2cc1OC

>  <Cat>
Yes

$$$$
>  <Compound>
O=C1N(c2ccccc2)c2ccccc2C1(Cc1ccncc1)Cc1ccncc1

>  <Cat>
No

$$$$
>  <Compound>
Cc1cc(C(C)(C)C)cc(C)c1CC1=NCCN1

>  <Cat>
No

$$$$
>  <Compound>
O=C1c2c(O)ccc(O)c2C(=O)c2c(NCCNCCO)ccc(NCCNCCO)c21

>  <Cat>
Yes

$$$$
